system: ACHN; assay: NCI tumour cell line growth inhibition, 48 h
Activity calls are given as the source filed them. Cut-off read from the data, not from the text of the source: active = GI50 up to about 1.1 µM and inactive = higher.
Give GI50 for every item shown.

[[record]]
molecule = "CNC(=O)OCC1=C(COC(=O)NC)CN(c2ccc(OC)cc2)C1"
experimental_value = "> 100 µM (inactive)"

[[record]]
molecule = "[O-][S+](CC1(O)CCCCC1)c1ccccc1 (stereo not given)"
experimental_value = "> 100 µM (inactive)"

[[record]]
molecule = "COC(=O)Cc1c(-c2c(CC(=O)OC)c3ccccc3n2C2OC(COC3OC(COC(C)=O)C(OC(C)=O)C(OC(C)=O)C3OC(C)=O)C(O)C(O)C2O)[nH]c2ccccc12 (stereo not given)"
experimental_value = "> 100 µM (inactive)"


Batch: GI50 for all items listed.
1. COC(=O)/C=C/C1C2C3(CCC(C)C12C)OCCS3 (stereo not given)
2. O=[N+]([O-])c1cccnc1S(=O)(=O)c1ccccc1
3. COC1/C(=C\C(=O)OC(C)(C)C)c2ccccc2N1C(C)=O (stereo not given)
4. O=C(Nc1ccc(Cl)cc1)c1cc2cc(/N=N/c3ccccc3Cl)ccc2oc1=O

> 100 µM (inactive)
4.83 µM (inactive)
> 100 µM (inactive)
6.3 µM (inactive)

Batch: GI50 for all items listed.
1. CSc1nc(O)c2cn(Cc3ccccc3)nc2n1
2. Cc1ccc(C)c(NC(=O)CCC(=O)CC(=O)C(C)(C)C)c1
3. CSc1nc(NC2OC(COC(C)=O)C(OC(C)=O)C(OC(C)=O)C2OC(C)=O)c(-c2csc(N)n2)c(=O)n1C (stereo not given)

1. > 76.4 µM (inactive)
2. > 100 µM (inactive)
3. 31.5 µM (inactive)

====

test system: M14; experiment: NCI tumour cell line growth inhibition, 48 h
Activity calls are given as the source filed them. No stated cut-off is given here; in the data, active = GI50 up to about 1.1 µM and inactive = higher.
Tick one outcome: TRUE for active, FALSE for inactive

Field: example entries. Status: answers known.
[[record]]
molecule = "CN1CCN(CCCCN2c3ccccc3Sc3ccc(C(=O)c4ccccc4)cc32)CC1"
label_value = "FALSE"

[[record]]
molecule = "CCC1(CC)C(=O)N(C(=O)c2ccccc2)N(C(=O)c2ccc(Cl)cc2)C1=O"
label_value = "FALSE"

[[record]]
molecule = "CN(C)[C@@H]1C(O)=C(C(=O)NCNc2nc3[nH]nnc3c(=O)[nH]2)C(=O)[C@@]2(O)C(O)=C3C(=O)c4c(O)cccc4[C@@](C)(O)[C@H]3C[C@@H]12"
label_value = "TRUE"

[[record]]
molecule = "N=C(N)NNC(=O)CCn1[nH]c(=O)c(Cl)c(Cl)c1=O"
label_value = "FALSE"

[[record]]
molecule = "CCOC(=O)C1=CN(Cc2ccccc2)C2ON=C(c3ccc(Cl)cc3)C2C1 (stereo unspecified)"
label_value = "FALSE"

[[record]]
molecule = "O=c1[nH]c(=O)n(C2CC(O)C(CO)O2)cc1C#Cc1ccc(F)cc1 (stereo unspecified)"
label_value = "FALSE"

[[record]]
molecule = "Cc1cc(N(C)c2ccccc2)nc(N(C)c2ccccc2)n1"
label_value = "FALSE"

[[record]]
molecule = "O=C1[C@@H]2C(c3ccncc3)=NO[C@@H]2C(=O)N1c1ccc(Cc2ccc(N3C(=O)[C@H]4C(c5ccncc5)=NO[C@H]4C3=O)cc2)cc1"
label_value = "FALSE"


Assay outcome for CN(C)CCNc1nc2c(c(=O)n(C)c(=O)n2C)n1C : what was it?
FALSE

Assay outcome for COc1ccc2c(c1)CCc1[nH]c3ccccc3c1CCCC2 : what was it?
FALSE

Assay outcome for Cc1[nH]n(C2=NCCN2)c(=O)c1C : what was it?
FALSE

Assay outcome for CC(=O)O[C@H]1[C@H](OC(C)=O)[C@@H](CN=[N+]=[N-])OCO[C@@H]1CN=[N+]=[N-] : what was it?
FALSE

Assay outcome for CC1(C)OC2C(O1)[C@H]1OC(C(Cl)(Cl)Cl)=N[C@H]1C(I)[C@H]2N1C(=O)c2ccccc2C1=O (stereo partly specified) : what was it?
FALSE

Assay outcome for O=C(O)c1cc(=O)c2c(OCC(O)COc3cccc4oc(C(=O)O)cc(=O)c34)cccc2o1 : what was it?
FALSE

Assay outcome for O=C(Nc1ccc2[nH]c3c(-c4ccccc4)nccc3c2c1)c1ccccc1[N+](=O)[O-] : what was it?
FALSE

Assay outcome for Cc1ccc(NC(=O)CSc2nnc(-c3ccc(/N=C\c4ccc(Cl)cc4)cc3)o2)cc1 : what was it?
FALSE

Assay outcome for O=C(O)C(Cc1ccccc1)NCc1c(O)ccc2c(-c3ccccc3)cc(=O)oc12 (stereo unspecified) : what was it?
FALSE

Assay outcome for O=C(O)c1[nH]c(C(=O)O)c(CC(F)(F)C(F)(F)C(F)(F)F)c1CC(F)(F)C(F)(F)C(F)(F)F : what was it?
FALSE

Assay outcome for CC(=O)NC(Cc1ccccc1)C(=S)N1CCCC1 (stereo unspecified) : what was it?
FALSE

Assay outcome for COc1ccc(NC(=O)CC(=O)N2N=C(C)C(/N=N\c3ccc(S(=O)(=O)c4ccc(/N=N/C5C(=O)N(C(=O)CC(=O)Nc6ccc(OC)cc6)N=C5C)cc4)cc3)C2=O)cc1 (stereo unspecified) : what was it?
FALSE

Assay outcome for COc1ccc(NCc2cc(OC)c(OC)c(OC)c2)cc1 : what was it?
TRUE

Assay outcome for NC(=O)c1cccc(OCC(O)CO)c1 (stereo unspecified) : what was it?
FALSE

Assay outcome for COCOC1CCCC[C@@]1(OCCOCCO[C@@]1(c2ccccc2)CCCC[C@H]1OCOC)c1ccccc1 (stereo partly specified) : what was it?
FALSE
